# test summary: Oral bioavailability in Sprague-Dawley rat at 4 mg/kg
# Assay type: ADME, organism-based
# condition details: in vivo
assay readout: bioavailability (%)
# unit: % | format: bare number

The cases that follow already have their bioavailability on record.
- CC(C)N(CC(C1CCCCC1)N1CCN(C(=O)[C@@H]2CN(C(C)(C)C)C[C@H]2c2ccc(F)cc2F)CC1)S(C)(=O)=O (single isomer, unassigned; diastereomer 2): 21
- CC(=O)N(CC(C1CCCCC1)N1CCN(C(=O)[C@@H]2CN(C(C)(C)C)C[C@H]2c2ccc(F)cc2F)CC1)C(C)C (stereo in doubt; 19B): 12
- CCN(CC)CC(C1CCCCC1)N1CCN(C(=O)[C@@H]2CN(C(C)(C)C)C[C@H]2c2ccc(F)cc2F)CC1 (some centres undefined): 22

Please find the next compound below.
[in] Find the measured bioavailability of CC(C)N(CC(C1CCCCC1)N1CCN(C(=O)[C@@H]2CN(C(C)(C)C)C[C@H]2c2ccc(F)cc2F)CC1)C(=O)c1ncccn1 (single isomer, unassigned; diastereomer 1) and report it.
[out] 26

---

The entries below come with measured IC50 values attached.
# system: Melanocortin receptor 4 (Homo sapiens)
# Sequence (P32245 whole entry): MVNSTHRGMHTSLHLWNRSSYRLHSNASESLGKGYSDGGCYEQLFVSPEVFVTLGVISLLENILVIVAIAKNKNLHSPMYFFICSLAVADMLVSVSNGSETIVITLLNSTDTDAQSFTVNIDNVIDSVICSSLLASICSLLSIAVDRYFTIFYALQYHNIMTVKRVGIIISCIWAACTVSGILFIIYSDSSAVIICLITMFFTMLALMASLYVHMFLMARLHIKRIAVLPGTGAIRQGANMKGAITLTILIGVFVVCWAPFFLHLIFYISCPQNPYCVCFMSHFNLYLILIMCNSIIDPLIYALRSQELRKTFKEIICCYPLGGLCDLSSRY
# test summary: Displacement of [125I]NDP-alpha-MSH from human MC4 receptor expressed in CHO cells
# Assay type: cell-based
# unit: nM | format: bare number

• CC(C)N(CC(C1CCCCC1)N1CCN(C(=O)[C@@H]2CN(C(C)(C)C)C[C@H]2c2ccc(F)cc2F)CC1)C(=O)c1cccnn1 (single isomer, unassigned; diastereomer 2) = 64
• CC(C)N(CC(C1CCCCC1)N1CCN(C(=O)[C@@H]2CN(C(C)(C)C)C[C@H]2c2ccc(F)cc2F)CC1)S(C)(=O)=O (single isomer, unassigned; diastereomer 1) = 15
• CC(C)N(CC(N1CCN(C(=O)[C@@H]2CN(C(C)(C)C)C[C@H]2c2ccc(F)cc2F)CC1)C(C)(C)C)S(C)(=O)=O (stereo in doubt; 27B) = 46
• CC(C)CC(CN(C(C)C)S(C)(=O)=O)N1CCN(C(=O)[C@@H]2CN(C(C)(C)C)C[C@H]2c2ccc(F)cc2F)CC1 (single isomer, unassigned; diastereomer 1) = 88
• CCCN(CCC)CC(C1CCCCC1)N1CCN(C(=O)[C@@H]2CN(C(C)(C)C)C[C@H]2c2ccc(F)cc2F)CC1 (some centres not stated) = 200
• CC(=O)N(CC(CC(C)C)N1CCN(C(=O)[C@@H]2CN(C(C)(C)C)C[C@H]2c2ccc(F)cc2F)CC1)C(C)C (single isomer, unassigned; diastereomer 1) = 49
• CC(C)N(CC(C1CCCCC1)N1CCN(C(=O)[C@@H]2CN(C(C)(C)C)C[C@H]2c2ccc(F)cc2F)CC1)S(C)(=O)=O (single isomer, unassigned; diastereomer 2) = 13
• CC(=O)N(CC(C1CCCCC1)N1CCN(C(=O)[C@@H]2CN(C(C)(C)C)C[C@H]2c2ccc(F)cc2F)CC1)C(C)C (stereo in doubt; 19B) = 28

Please find the next compound below.
[in] Find the measured IC50 of CCN(CC)CC(C1CCCCC1)N1CCN(C(=O)[C@@H]2CN(C(C)(C)C)C[C@H]2c2ccc(F)cc2F)CC1 (some centres not stated) and report it.
[out] 260

---

# system: Melanocortin receptor 5 (Homo sapiens, UniProt P33032)
# Sequence (P33032 whole entry): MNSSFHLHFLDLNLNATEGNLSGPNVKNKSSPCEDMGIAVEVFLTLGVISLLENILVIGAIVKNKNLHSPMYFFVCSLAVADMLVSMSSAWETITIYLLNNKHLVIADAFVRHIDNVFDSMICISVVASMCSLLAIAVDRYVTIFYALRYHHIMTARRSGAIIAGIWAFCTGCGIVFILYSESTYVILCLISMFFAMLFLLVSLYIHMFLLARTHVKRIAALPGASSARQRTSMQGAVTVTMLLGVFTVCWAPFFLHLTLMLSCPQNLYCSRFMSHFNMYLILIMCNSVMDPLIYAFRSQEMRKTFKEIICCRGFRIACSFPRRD
# test summary: Agonist activity at human MC5 receptor expressed in CHO cells assessed as increase of alpha-MSH-induced cAMP accumulation at 10 uM relative to alpha-MSH
# Type: functional, cell-based
Please note: Activity exactly at 60% is criterion not met. Only values below 60% get criterion met.

- CC(C)N(CC(C1CCCCC1)N1CCN(C(=O)[C@@H]2CN(C(C)(C)C)C[C@H]2c2ccc(F)cc2F)CC1)C(=O)c1cnn(C(C)C)c1 (single isomer, unassigned; diastereomer 1): criterion not met
- CC(C)N(CC(C1CCCCC1)N1CCN(C(=O)[C@@H]2CN(C(C)(C)C)C[C@H]2c2ccc(F)cc2F)CC1)C(=O)c1cccnn1 (single isomer, unassigned; diastereomer 1): criterion not met
- CC(=O)N(CC(CC(C)C)N1CCN(C(=O)[C@@H]2CN(C(C)(C)C)C[C@H]2c2ccc(F)cc2F)CC1)C(C)C (single isomer, unassigned; diastereomer 2): criterion met

[in] is_below(Activity, 60%) for CC(C)N(CC(C1CCCCC1)N1CCN(C(=O)[C@@H]2CN(C(C)(C)C)C[C@H]2c2ccc(F)cc2F)CC1)S(C)(=O)=O (single isomer, unassigned; diastereomer 2) ?
[out] criterion met

[in] is_below(Activity, 60%) for CC(=O)N(CC(C1CCCCC1)N1CCN(C(=O)[C@@H]2CN(C(C)(C)C)C[C@H]2c2ccc(F)cc2F)CC1)C(C)C (stereo in doubt; 19B) ?
[out] criterion not met

[in] is_below(Activity, 60%) for CC(C)CC(CN(C(C)C)S(C)(=O)=O)N1CCN(C(=O)[C@@H]2CN(C(C)(C)C)C[C@H]2c2ccc(F)cc2F)CC1 (single isomer, unassigned; diastereomer 2) ?
[out] criterion not met

---

# system: Melanocortin receptor 5 (Homo sapiens)
# test summary: Displacement of [125I]NDP-alpha-MSH from human MC5 receptor expressed in CHO cells
The entries below come with measured pIC50 values attached.
Entry type: numeric. Quantity: pIC50, the -log10 of concentration in molar units.

• CC(C)N(CC(C1CCCCC1)N1CCN(C(=O)[C@@H]2CN(C(C)(C)C)C[C@H]2c2ccc(F)cc2F)CC1)C(=O)c1cnn(C(C)C)c1 (single isomer, unassigned; diastereomer 1) = 6.21

[in] Please report pIC50 with Melanocortin receptor 5 (Homo sapiens) for item CC(C)CC(CN(C(C)C)S(C)(=O)=O)N1CCN(C(=O)[C@@H]2CN(C(C)(C)C)C[C@H]2c2ccc(F)cc2F)CC1 (single isomer, unassigned; diastereomer 2) .
[out] 5.55

[in] Please report pIC50 with Melanocortin receptor 5 (Homo sapiens) for item CC(C)N(CC(C1CCCCC1)N1CCN(C(=O)[C@@H]2CN(C(C)(C)C)C[C@H]2c2ccc(F)cc2F)CC1)C(=O)c1cccnn1 (single isomer, unassigned; diastereomer 1) .
[out] 6.89

---

# system: Melanocortin receptor 4 (Homo sapiens)
# test summary: Agonist activity at human MC4 receptor expressed in CHO cells assessed as increase of alpha-MSH-induced cAMP accumulation at 10 uM relative to alpha-MSH
# Format: functional, cell-based
The entries below come with measured Activity values attached.

* CC(C)N(CC(C1CCCCC1)N1CCN(C(=O)[C@@H]2CN(C(C)(C)C)C[C@H]2c2ccc(F)cc2F)CC1)C(=O)c1cccnn1 (single isomer, unassigned; diastereomer 2) | 99%
* CC(C)N(CC(C1CCCCC1)N1CCN(C(=O)[C@@H]2CN(C(C)(C)C)C[C@H]2c2ccc(F)cc2F)CC1)S(C)(=O)=O (single isomer, unassigned; diastereomer 2) | 117%
* CC(C)N(CC(C1CCCCC1)N1CCN(C(=O)[C@@H]2CN(C(C)(C)C)C[C@H]2c2ccc(F)cc2F)CC1)C(=O)c1ncccn1 (stereo in doubt; 22B) | 88%
* CC(C)CC(CN(C(C)C)S(C)(=O)=O)N1CCN(C(=O)[C@@H]2CN(C(C)(C)C)C[C@H]2c2ccc(F)cc2F)CC1 (single isomer, unassigned; diastereomer 1) | 117%

[in] Find the measured Activity of CC(=O)N(CC(CC(C)C)N1CCN(C(=O)[C@@H]2CN(C(C)(C)C)C[C@H]2c2ccc(F)cc2F)CC1)C(C)C (single isomer, unassigned; diastereomer 1) and report it.
[out] 101%

---

# system: Melanocortin receptor 3 (Homo sapiens)
# Sequence (P41968 whole entry): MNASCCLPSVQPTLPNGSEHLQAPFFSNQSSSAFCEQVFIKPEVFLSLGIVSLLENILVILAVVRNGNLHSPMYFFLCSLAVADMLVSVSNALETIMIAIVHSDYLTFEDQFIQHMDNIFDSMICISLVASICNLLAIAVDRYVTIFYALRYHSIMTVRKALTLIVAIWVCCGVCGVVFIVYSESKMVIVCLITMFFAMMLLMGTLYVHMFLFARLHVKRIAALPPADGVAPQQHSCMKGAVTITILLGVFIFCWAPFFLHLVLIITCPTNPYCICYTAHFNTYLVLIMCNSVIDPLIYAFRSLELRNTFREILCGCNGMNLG
# test summary: Agonist activity at human MC3 receptor expressed in CHO cells assessed as increase of alpha-MSH-induced cAMP accumulation at 10 uM relative to alpha-MSH
# Format: functional, cell-based
assay readout: Activity (%)
# unit: % | format: bare number

[in] Find the measured Activity of CC(=O)N(CC(CC(C)C)N1CCN(C(=O)[C@@H]2CN(C(C)(C)C)C[C@H]2c2ccc(F)cc2F)CC1)C(C)C (single isomer, unassigned; diastereomer 2) and report it.
[out] 109

[in] Find the measured Activity of CC(C)N(CC(C1CCCCC1)N1CCN(C(=O)[C@@H]2CN(C(C)(C)C)C[C@H]2c2ccc(F)cc2F)CC1)C(=O)c1cnn(C(C)C)c1 (single isomer, unassigned; diastereomer 1) and report it.
[out] 102

[in] Find the measured Activity of CC(C)N(CC(C1CCCCC1)N1CCN(C(=O)[C@@H]2CN(C(C)(C)C)C[C@H]2c2ccc(F)cc2F)CC1)C(=O)c1cccnn1 (single isomer, unassigned; diastereomer 1) and report it.
[out] 108

---

The entries below come with measured pIC50 values attached.
# system: UniProt:Q01726
# Sequence (Q01726 whole entry): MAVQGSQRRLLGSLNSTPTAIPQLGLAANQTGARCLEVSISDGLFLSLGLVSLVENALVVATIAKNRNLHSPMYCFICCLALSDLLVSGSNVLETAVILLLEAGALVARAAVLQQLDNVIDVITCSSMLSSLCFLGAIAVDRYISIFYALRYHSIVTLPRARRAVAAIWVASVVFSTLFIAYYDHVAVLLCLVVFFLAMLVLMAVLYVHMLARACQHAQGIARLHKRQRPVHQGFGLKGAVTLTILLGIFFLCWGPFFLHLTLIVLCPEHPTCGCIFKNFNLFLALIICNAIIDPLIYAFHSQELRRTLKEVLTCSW
# test summary: Displacement of [125I]NDP-alpha-MSH from human MC1 receptor expressed in CHO cells
Entry type: numeric. Quantity: pIC50, the -log10 of concentration in molar units.

• CC(=O)N(CC(C1CCCCC1)N1CCN(C(=O)[C@@H]2CN(C(C)(C)C)C[C@H]2c2ccc(F)cc2F)CC1)C(C)C (stereo in doubt; 19B) = 5.74
• CC(C)N(CC(C1CCCCC1)N1CCN(C(=O)[C@@H]2CN(C(C)(C)C)C[C@H]2c2ccc(F)cc2F)CC1)C(=O)c1cccnn1 (single isomer, unassigned; diastereomer 1) = 5.72
• CC(C)CC(CN(C(C)C)S(C)(=O)=O)N1CCN(C(=O)[C@@H]2CN(C(C)(C)C)C[C@H]2c2ccc(F)cc2F)CC1 (single isomer, unassigned; diastereomer 2) = 5.30

[in] Find the measured pIC50 of CC(=O)N(CC(CC(C)C)N1CCN(C(=O)[C@@H]2CN(C(C)(C)C)C[C@H]2c2ccc(F)cc2F)CC1)C(C)C (single isomer, unassigned; diastereomer 2) and report it.
[out] 5.44

[in] Find the measured pIC50 of CC(C)N(CC(C1CCCCC1)N1CCN(C(=O)[C@@H]2CN(C(C)(C)C)C[C@H]2c2ccc(F)cc2F)CC1)C(=O)c1cnn(C(C)C)c1 (single isomer, unassigned; diastereomer 1) and report it.
[out] 6.14

[in] Find the measured pIC50 of CC(C)N(CC(C1CCCCC1)N1CCN(C(=O)[C@@H]2CN(C(C)(C)C)C[C@H]2c2ccc(F)cc2F)CC1)S(C)(=O)=O (single isomer, unassigned; diastereomer 2) and report it.
[out] 6.00
